// data source = patent EP4644423A1

# assayed target: T1, RC-Fc (human)
# T1 construct: Knob-in-hole heterodimer of the R chain and the C chain, human IgG1 Fc; expressed in 293 cells, purified on Protein A; also called RC-Fc fusion protein; reconstructed CGRP receptor extracellular region
# T1 sequence (chain, as listed by the source limits assumed, chain 1 of 2): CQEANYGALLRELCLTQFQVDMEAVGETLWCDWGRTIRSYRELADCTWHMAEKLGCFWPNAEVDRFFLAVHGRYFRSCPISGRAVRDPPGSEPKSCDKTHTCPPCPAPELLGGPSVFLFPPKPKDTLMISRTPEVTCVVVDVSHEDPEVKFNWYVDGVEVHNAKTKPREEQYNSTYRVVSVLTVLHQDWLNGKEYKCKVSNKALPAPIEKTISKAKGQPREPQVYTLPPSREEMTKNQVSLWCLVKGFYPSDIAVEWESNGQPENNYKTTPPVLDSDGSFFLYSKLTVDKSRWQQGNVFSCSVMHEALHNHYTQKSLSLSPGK
# T1 sequence (chain, as listed by the source limits assumed, chain 2 of 2): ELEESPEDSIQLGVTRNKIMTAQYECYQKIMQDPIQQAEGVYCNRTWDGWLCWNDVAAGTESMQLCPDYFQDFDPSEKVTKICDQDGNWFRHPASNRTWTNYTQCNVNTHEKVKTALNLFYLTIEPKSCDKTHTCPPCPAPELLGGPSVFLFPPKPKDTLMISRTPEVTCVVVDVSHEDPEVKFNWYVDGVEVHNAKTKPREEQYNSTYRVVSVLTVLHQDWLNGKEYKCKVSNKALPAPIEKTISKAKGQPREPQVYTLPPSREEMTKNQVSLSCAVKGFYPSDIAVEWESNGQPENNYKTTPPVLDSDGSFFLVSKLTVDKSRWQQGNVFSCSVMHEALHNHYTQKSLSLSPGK
# run description: ELISA, RC-Fc coated, VHH-His titrated, anti-His-HRP; Exp3
endpoint name: pEC50
In plain terms, pEC50 is the concentration in mol/L turned into minus its base-10 logarithm.

A10-268-76 (VHH, Llama VHH with C-terminal 6xHis, expressed in 293 cells; also called B828604) VHH: QVQLVESGGGLVPAGGSLNLSCAASGRTFSTYAMGWFRQAPGKEREFVATINWDNGRTYYADSVKGRFTISRDNAKNMVYLQMNSLKPEDTAVYYCAADKTAIFRTSVVPDDYDYWGQGTQVTVSS: 10.55

So what's the measured pEC50 for this one? A10-269-165 (VHH, Llama VHH with C-terminal 6xHis, expressed in 293 cells; also called N220505103) VHH: QVQLVESGGGLVQAGGSLRLSCAASRTWFSIGAMGWYRQAPGKQRELVATITSGSSTTYADAVKGRFTVSRDNAENTVYLQMNSLKPEDTAVYYCYTKSRRKPWDLENDYWGQGTQVTVSS
9.32

So what's the measured pEC50 for this one? A10-268-5 (VHH, Llama VHH with C-terminal 6xHis, expressed in 293 cells; also called B828601) VHH: QVQLVESGGGLVQAGGSLRLSCAVSGRTVTTITMGWFRQAPGKEREFVASISWDGLSTGYQDSVKGRFTISRDNAKNTVYLQMNSLKPEDTAVYYCAAGDSLWSWSKVPANYAYWGQGTQVTVSS
10.10

So what's the measured pEC50 for this one? A10-269-172 (VHH, Llama VHH with C-terminal 6xHis, expressed in 293 cells; also called N220505104) VHH: EVQVVESGGGLVQAGGSLRLSCVSSESSFSINTMRWYRQAPGKERELVASINSASSTYYGDAVKGRFTISRVNAKNTVYLQMNSLKPEDTAVYFCNTHSVLASRDYWGQGTQVTVSS
10.38
